- Assay method text: yeast display, Sf9 membrane polyspecificity reagent, FACS + sequencing; frameworks hold sequencing errors
Parameter: polyreactivity (PSR sort gate)

Sequence input	polyreactivity (PSR sort gate)
QVQLVESGGGLVQAGGSLRLSCAASGRTFVFYAMGWYRQAPGKERELVAAISSSGGSTYYADSVKGRFTISRDNAKNTVYLQMNSLKPEDTAVYYCNADFYSVGSQYGYWGQGTQVTVSS	high polyreactivity
QVQLVESGGGLVQAGGRLRLTCAASGLTFERHAMGWYSQARGKERDVVAAWSGGGTYYADSVKGRFTISRDNAKNTVYLHLNSLKPQDTAVYYCAADYRYYLSIGVNSWGQGTQVTVSS	low polyreactivity
QVQLVESGGGLVQAGGSLRLSCAASGRTFKLYAMGWYRQAPGKERALVAAITESGGSTYYADSVKGRFTISRDNAKNTVYLQMNSLKPEDTAVYYCAAYASAGTRGGYDYWGQGTQVTVSS	low polyreactivity
QVQLVESGGGLVQAGGSLRLSCAASGLTFRKYAMGWYRPAPGKEREWVAAITRGGSTNYADSVKGRFTISRDNAKNTVYLQMNSLKPEDTAVYYCAAQYTYRFPYPGYATTHDYWGQGTQVTVSS	high polyreactivity
QVQLVESGGGLVQAGGSLRLSCAASGYIFDIYAMGWYRQAPGKERELVAVITRSGGGTYYADSVKGRFTISRDNAKNTVYFQMNSLKPEDTAVYYCAAESYVYGGSDYVYWGQGTEVTVSS	low polyreactivity

Exercise: Please report polyreactivity (PSR sort gate) for the following sequence: `QVQLVESGGGLVQAGGSLRLSCAASGRTSLNYAMGWYRQAPGKERELVAAITLRGGNTYYADSVKGRFTISRDNAKNTVYLQMNSLKPEDTAVYYCAAYTKEISIYYPYEYWGQGTQVTVSS`
Solution: high polyreactivity

Exercise: Tell us which polyreactivity (PSR sort gate) value is on record for `QVQLVESGGGLVQAGGSLRLSCAASGSIFSLYAMGWYRQAPGKERELVATISKSGGSTYYADSVKGRFTISRDNAKNTVYLQMNSLKPEDTAVYYCAARLTYTGGQGAYDYWGQGTQVTVSS`
Solution: high polyreactivity

Exercise: Specify measured polyreactivity (PSR sort gate) for `QVQLVESGGGLVQAGGSLRLSCAASGRILYSYAMGWYRQAPGKERELVADITQRGGTTDYADSVKGRFTISRDNAKTTVYVQMNSLKPEDTAVYYCNANSYRSYGGRGGVEYDYWGEGTQVTVSS` .
Solution: low polyreactivity

Exercise: Let me know recorded polyreactivity (PSR sort gate) for `QVQLVESGGGLVQAGGSLRLSCAASGLTFQEYAMGWYRQAPGKERELVAAISWSGGSTYYADSVKGRFTISRDNAKNTVYLQMNSLKPEDTAVYYCAAEAYEEFITGWYAYDYWGQGTQVTVSS` , thanks.
Solution: high polyreactivity

Exercise: Determine its reported polyreactivity (PSR sort gate): `QVQLVESGGGLVQAGGSLRLSCAASGSTFVGYAMGWYRQAPGKERELVADIDSIGGSTYYADSVNGRFTISRDNAKNTVYLQMNSLKPEDTAVYYCAARRFDTALVLYDYWGQGTQVTVSS`
Solution: low polyreactivity

Exercise: Please report polyreactivity (PSR sort gate) for the following sequence: `QVQLVESGGGLVQEGGSLRLSCAASGSIFLQYAMGWYRQAPGKERELVAGISLRGCSTYYADSVKGRFTISRDNAKNTVYVQLNSLKPEDTAVYYCAADVIVTVETHTSGPSFTEYDYWGQGTQVTVSS`
Solution: low polyreactivity

---

- Assay method text: yeast display, Sf9 membrane polyspecificity reagent, FACS + sequencing; frameworks hold sequencing errors
Parameter: polyreactivity (PSR sort gate)

Sequence input	polyreactivity (PSR sort gate)
QVHLVESGGGLVQAGGSLRLSCAASGLTFAYYAMGWYRQAPGKERELVAAITDSAGNTYYADSVKGRFTISRDNAKNTVYLQMNSLKQEDTAVYYCAAAWPSTGLLYVLGYSGYGYWGQGTQVTVSS	low polyreactivity
QVQLVETGGGLVQAGGSLRLSCAPSGINFTGYDMGWYRQAPGKERELVAAITSGGSTYYADSVKGRFTISRDNAKNTVYLQMNSLKPEDTAVYYCAARAKLTGYWGQGTQVTVSS	high polyreactivity
QVQLVESGGGLVQAGGRLRLSCAASGSIFDRNAMGLYRQAPGKESELVATITWYGVSTYYADSVKGRFTISRDNAKNTVYLQMNSLKPEDTAVYYCNADYSYRHWYDPGHYGEAMGYWGQGTQVTVSS	low polyreactivity
QVQLVESGGGLVQAGGSLRLSCAASGSTFVYYAMGWYRQAPGKERELVAAISSGGNTKYADSVKGRFTISRDNAKNTVYLQMNSLKPEDTAVYYCARESQSYYDHDYWGQGTQVTVSS	low polyreactivity
QVQLVESGGGLVQAGGSLRLSCAASGIIFQNYAMGWYRPAPGKERELVAVISNTGSTNYADSVKGRFTISRDNAKNTVYLQMNSLKPEDTAVYYCAAEFRVVDWLWFDYWGQGTQVTVSS	high polyreactivity

Exercise: Return polyreactivity (PSR sort gate) (reported value) for this sequence: `QVQLVESGGGLVQAGGSLRLSCAASGSIFSVYAMGWYRQAPGKERELVAAINWDGTSTDYADSVKGRFTISRDNAKNTVYLQMNSLKPEDTAVYYCAAEGHTAFLVYRVSPLQYDYWGQGTQVTVSS`
Solution: low polyreactivity

Exercise: Fill in polyreactivity (PSR sort gate) for record `QVQLVESGGGLVQAGGSLRLSCAASGRTFVYYAKGWYIQAPGKERELVATISSSDSTNYAYSVKGRFTISRDNAKNTVYLQMNSLKPEDTAVYYCAGGPKGGGYYDPFDYWGQGTQVNVSS`
Solution: low polyreactivity

---

- Assay method text: yeast display, Sf9 membrane polyspecificity reagent, FACS + sequencing; frameworks hold sequencing errors
Parameter: polyreactivity (PSR sort gate)

Examples with answers:
Sequence input	polyreactivity (PSR sort gate)
QVQLVESGVGLDQARVSLRLSCAASGFTFGQYVMGWYRQAPGKEREFVAIISRSVDSTYYADSVKGRFTISRDNAKNTVYLQMNSLNPEDTAVYYCNARGKRRGKIPYSSYASSYDSWGQGTQVTVSS	high polyreactivity
QVQLVESGGGLVQAGGSLRLSCAASGSIFRYNVMGWYRQAPGKERELVAAISYTGGRKYYADSVKGRFTISRDNAKNTVYLQMNRLKPEETAVYDCAALGWSGRYRYDYWGQGTQVTVAS	high polyreactivity
QVQLVESGGGLVQAGGSLRLSCAASGSIFEYYTMGWYRQAPGKERELVATISRSADRTYYADSVKGRFTISRDNAKNTVYLQMNSLKPEDTAVDYCAKRYPRTTQWIYDYWGQGTQVTVSS	high polyreactivity
QVQLVESGGGLVQAGGSLRLSCAASGFTFAVYAMGWYRQAPGKERELVAAISRSGTRTYYADSVKGRFTISRDNAKNTVFLQMNSLKPEDTAVYYCAADKYRHGYDYWGQGTQVTVSS	low polyreactivity
QVQLVESGGGLVQAGGSLRLSCAASGGIFTPYAMGWYRQAPGKERELVAAISRSGGSTYYADSVKGRFTISRDNAKNTVYLQMNSLKPEDTAVYYCNALFRALKAFSQYNYWGQGTQVTVSS	high polyreactivity
QVQLVESGGGLVQAGGSLRLSCAASGFIFKGYDMGWYRQAPGKEREMVAAITSGSTNYADSVKGRFTNSRDNAKNTVYLQMNSVKPEDTAVYYCNAELGRATLYPRVFIERGGYWGQGTQVNVSS	low polyreactivity
QVQLVESGGVLVQAGGSLRLSCAASGFTFYRYDMGWYRQAPVKERELVAAITWSGGSTYYADSLKGRFTISRDNAKNTVYLQMNSLKPEDTAVYDCAAENYDGGFEYWGLGTQVTVSS	low polyreactivity
QVQLVESGGGLVQAGGSLRLSSAASGFTFSDNAMGWYRQAPGKERELVAAISRSGGNTHYADSVKGRFTISRDNAKNTVYLQMNSLKPEDTAVYYCAKYLYKSRIRSTFDYWGQGTQVTVSS	high polyreactivity
QVQLVESGGGLVQAGGSLRLSCAASGITFVYYDMGWYRQAPGKERELVAAISSGGSTYYADSVKGRFTISRDNAKNNVYLQMNRLKPEDTAVYYCAAKISSNYHIGGDDYWGQGTQVTVSS	high polyreactivity
QVQLVESGGGLVQAGGSLRLSCAASGRTSWANVMGWYRQAPGKERELVAAISSSGDSTYYADSVKGRFTISRDNAKNTVYLQMNSLKPEDTAVDYCAAGYELSDLAILDYRYDYWGQGSQVTVSS	low polyreactivity

Exercise: Give polyreactivity (PSR sort gate) for `QVQIVESGGGLVQAGGSLRLSCAASGSILIPYAMGWYRQAPGKERELVAAISRTTRTYYADSVKGRFTISRDNAKNTVYLQMNCLKPEDTAVYYCAADRVYPYFRYGFWGQGTKVTVSS`
Solution: high polyreactivity

---

- Assay method text: yeast display, Sf9 membrane polyspecificity reagent, FACS + sequencing; frameworks hold sequencing errors
Parameter: polyreactivity (PSR sort gate)

Below: 6 sequences and their reported polyreactivity (PSR sort gate).
Sequence input	polyreactivity (PSR sort gate)
QVQLVESGGGLVQAGGSLRLSCAASGSTFWPYAMGWYRQAPGKERELVATIRWSGGSTSYADSVKGRFTISRDNAKNTVYVQMNSLKPEDTAVYYCAARDFHYYRFKTYGYWGQGTQVTVSS	high polyreactivity
QVQLVESGGGLVQAGGSLRLSCAASGLIFHYYAMGWYRQAPGKERELVAAISSGGSTNYADSVKGRFTISRDNAKNTVYLQMNSLKPLDTAVYYCAARSGARRGNVYVYYEYYYWGQGTQVTVSS	low polyreactivity
QVQLVESGGGLVQAGGSLRLSCAASGFTFTFYALGWYRQAPGKERELVAAIRTSDGRTYYADSVKGRFTISRDNAKNTVYLQMNSLKPEDTAVYYCNARRYVGYDYWGQGSQVTVSS	high polyreactivity
QVHLVESGGGLVQAGGSLRLSCAASGSTIYYNAMGWYRQAPGKERELVAAISKSSSRTYYADSVKGRFTISRDNAKNTVYLQMNSLKTEDTAVYFCAADAVYFHFDYWGQGTQVTVSS	high polyreactivity
QVQLQESGGGLVQAGGSLRLSCAGTGNIIDADFMRWYRQAPGKERELAASSTEGGSTNYAESVKSRFTISRDNANNTVYLQMNSLKPEVTAVYYCAAIAYPYIPTYFDYDSDYFYWGQGTQVTVSR	high polyreactivity
QVQLVESGGGLVQAGGSLRLSCAASGSIFKNYAMGWYRQAPGKERELVASITTGASTNYADSVKGLFTISRDNAMNTVYLQMNSLKPEDSAVYYCAAYRPTYYAYYYWGQGTQVTVSS	high polyreactivity

Exercise: Assign polyreactivity (PSR sort gate) to the following record: `QVQLVESGGGLVQAGGSLRLSCAPSGYTFWLYAMGWYRQAPGKERELVAAITWNGGSTYYADSVKGRFTISRDIAKNTVYLQMISLNPEYTAVYYCAAEAIIYLQWFDYWGQGTQVTVSS`
Solution: low polyreactivity

Exercise: Identify measured polyreactivity (PSR sort gate) associated with `QVQLVESGGGLVQAGGSLRLSCAGSGSTFRSNAMGWYRQAPGKERELVAAISRSGGRTYYADSVKGRFTISRDNAKNTVYLQMNSLKPEDTAVYYCNTVLKRQRKNEYWGQGTQVTVSS`
Solution: high polyreactivity

Exercise: Name the recorded polyreactivity (PSR sort gate) of the item `QVQLVESGVGLGQAGGSLRLSCAASGRIFSRYAMGWYRPAPGKERELVATITRRGGSTSYADSVKGRFTISRDNAKNTVFLQMNCLKPEDTAVYYCAAQSFYGIYYGKQDYDYWGQGTQVTVSS` in your answer.
Solution: high polyreactivity

Exercise: Supply reported polyreactivity (PSR sort gate) belonging to this sequence: `QVQLVESRGGLVQAGGSLRLSCAASGFIFLGNAMGWYRQAPGKERELVASISRGGSTNYADSVKGRFTISRDNAKNTVYLQMNSLKPEDTAVYYCAADLSDKFGYWGQGTQVTVSS`
Solution: low polyreactivity

Exercise: Tell us which polyreactivity (PSR sort gate) value is on record for `QVQLVESAGGLVQEGGSLRLSCAASGRIFGPYALGWYRQAPGKERELVAAISFSGSGTYYAASVKGRFTISRDNANNTVYLQIYSLKPEDNAVYYCAADGVYIDSNNRNTSDYWGQGTQVTVSS`
Solution: low polyreactivity
